# assay_notes: NCI Yeast Anticancer Drug Screen. Data for the sgs1 mgt1 strain (AID 161);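 note: 0% = growth of cultures given vehicle only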
# assay_conditions: S. cerevisiae sgs1 mgt1 strain, at 50.0 µM
The panel holds about 79,000 compounds, 15% with a hit somewhere; the sample as a whole holds those more often. Activity calls are given as the source filed them. Cut-off read from the data, not from the text of the source: active = growth inhibition above about 70%; inactive = the rest.
Lab note: assign the record to one of t for active, f for inactive

Known results for compounds:
compound: Cn1nc(-c2ccc(Cl)c(Cl)c2)[n+]([O-])c2c(=O)n(C)c(=O)nc1-2
answer_label: t

compound: O=C(Nc1cccc(Cl)c1)ON1C(=O)C2C(C1=O)C1(Cl)C(Cl)C(Cl)C2(Cl)C1(Cl)Cl (stereo unspecified)
answer_label: f

compound: Cc1c(C(N)=O)c(-c2ccccc2)c(-c2ccccc2)n1Nc1ccccc1
answer_label: f

compound: COC1=NO[C@@H]2C=CO[C@H]12
answer_label: f

Ask: What did this assay record as the result for "CN(C)CCNc1ncnc2nc(-c3ccc4ccccc4c3)[nH]c12" ?
Reply: f

---

Entries and their growth inhibition
# assay_notes: NCI Yeast Anticancer Drug Screen. Data for the mlh1 rad18 strain (AID 175)
# assay_conditions: S. cerevisiae mlh1 rad18 strain growth inhibition; at 50.0 µM; stronger effect = higher value
About 79,000 compounds went through this panel and 15% of them were active in at least one assay; those are over-represented in the sample as a whole.
Lab book: enter the figure in %, no units written.

molecule: Cc1ccc(NC(=O)Nc2ccc(C)cc2)cc1
growth inhibition / %: -18.1

molecule: Cc1ccc(N2C(=O)CNC2=O)cc1
growth inhibition / %: -6.45

molecule: CCOc1ccccc1NC(=O)C(=O)CC(=O)c1sc(Nc2nnc(-c3ccc(Cl)c(Cl)c3)o2)nc1C
growth inhibition / %: 17.8

molecule: CC1(C)CC(C2=NCCO2)CC(C)(C)N1
growth inhibition / %: -31.1

molecule: CCOCC/C(C(=O)O)=C(\CC)C(=O)O
growth inhibition / %: 9.05

Ask: Could you tell me which growth inhibition is on file for "Cn1ccc2c(C(=O)c3ccccc3)cccc2c1=O" ?
Reply: -10.5

Ask: // same read-out, input: COc1ccc(C2CC(=O)NC2=O)cc1OC (stereo unspecified)
Reply: -5.65

Ask: Lookup "O=[N+]([O-])c1cc(C(F)(F)F)ccc1S(=O)(=O)c1ccccc1"
Reply: 17.6

Ask: Now consider "CCOc1ccccc1NC(=S)NC1CCCCC1" and answer again.
Reply: -6.3

Ask: Cool, now "CC1=CC(=O)c2cccc(NC3=NCCO3)c21"
Reply: -29.2

Ask: Could you do the same for Clc1nc(Cl)c2ncn(C3CCCCO3)c2n1 (stereo unspecified) , please?
Reply: 14.3

---

# assay_notes: NCI Yeast Anticancer Drug Screen. Data for the cln2 rad14 strain (AID 165);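 note: 0% = growth equal to vehicle treated cultures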
# assay_conditions: S. cerevisiae cln2 rad14 strain, at 50.0 µM, stronger effect = higher value
# Description: Growth inhibition of yeast strains with defined genetic alterations is measured as a screen for potential anti-cancer activity. Selected strains with alterations in DNA damage repair or cell cycle control were exposed to compounds and growth inhibition was measured relative to vehicle treated controls. The strain used in this assay is cln2 rad14
About 79,000 compounds went through this panel and 15% of them were active in at least one assay; those are over-represented in the sample as a whole.
value_kind: growth inhibition (%)
Give the quantity in %, number only.

Examples from the recorded data:
compound: Cc1cc(N=Nc2ccccc2)c2cccnc2c1N
unit_name: %
growth inhibition: 11.6
//
compound: CC(=O)SCC(C)CCl (configuration not stated)
unit_name: %
growth inhibition: -3.15

Ask: I'd like to know its growth inhibition. The compound in question is CC(=O)OCC1OC(n2c(-c3ccc(Cl)cc3)cc(-c3ccccc3)c(C#N)c2=S)C(OC(C)=O)C(OC(C)=O)C1OC(C)=O (configuration not stated)
Reply: 2.8

Ask: And what about the compound "FC(F)(F)c1ccccc1N=Cc1cccs1" ?
Reply: 3.05

Ask: Same for COC(SC)(C(=O)O)c1cc(-c2c(Cl)cccc2Cl)no1 (configuration not stated)
Reply: -11.4

Ask: Entry to check: "Nc1nc(-c2ccc(F)cc2)cc(-c2cc(-c3ccc(F)cc3)nc(N)n2)n1"
Reply: -2

Ask: Note, next up: "Oc1ccc(-c2ccc(O)cc2O)c(O)c1"
Reply: 7.45

---

# assay_notes: NCI Yeast Anticancer Drug Screen. Data for the bub3 strain (AID 167)
# assay_conditions: S. cerevisiae bub3 mutant strain, at 50.0 µM
Compounds without any hit were thinned out: in the full panel of roughly 79,000, 15% have a hit. Calls of active or inactive are those of the source. Rule as the data show it: active = growth inhibition above about 70%; inactive = the rest.
Bench note: report the call from yes (1) for active, no (0) for inactive

Study these solved cases before continuing.
molecule: CCOc1c2c(nn(C)c1=O)Oc1ccccc1N2CCCN1CCOCC1
answer_label: no (0)
--
molecule: CCOC(=O)C1CC1c1ccccc1 (stereo not given)
answer_label: no (0)
--
molecule: Cc1ccc(NC(=S)N/C=C(\c2ccccc2)S(=O)Cc2ccccc2)c(C)c1 (stereo not given)
answer_label: no (0)
--
molecule: CC(C)C(O)(c1ccccc1)C(O)(c1ccccc1)C(C)C (stereo not given)
answer_label: yes (1)

Here is another molecule to look at.
Ask: Give the logged outcome of this assay for the following molecule: "CCCCCCCCCCCC(=O)CC(=O)c1c(O)cccc1O"
Reply: no (0)

---

# assay_notes: NCI Yeast Anticancer Drug Screen. Data for the sgs1 mgt1 strain (AID 161);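 note: 0% = growth of cultures given vehicle only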
# assay_conditions: S. cerevisiae sgs1 mgt1 strain, at 50.0 µM, stronger effect = higher value
About 79,000 compounds went through this panel and 15% of them were active in at least one assay; those are over-represented in the sample as a whole.
value_kind: growth inhibition (%)
Please state the figure in %; there is no need to write the unit.

Reference set, count: 5
compound: CSC(=S)Nc1nc2ccc(Cl)cc2s1
growth inhibition / %: 15.3

compound: CCCC(=O)c1c(C)cc(C)cc1C
growth inhibition / %: -24.4

compound: COC(=O)C(=O)C(/C=N/C(=S)Nc1ccc(S(=O)(=O)Nc2nccs2)cc1)=C(\O)c1c(C)[nH]c2ccccc12
growth inhibition / %: 35

compound: CCOc1ccccc1/C=C(\C#N)c1cccc(Cl)c1
growth inhibition / %: 29.9

compound: O=[N+]([O-])c1ccc(CSc2ncnc3c2ncn3C2OC(CO)C(O)C2O)cc1 (configuration not stated)
growth inhibition / %: 9.5

Ask: Entry "C/C(=N\Nc1ccccc1)c1sc(-c2nc(C)c(/C(C)=N/Nc3ccccc3)s2)nc1C" has what growth inhibition?
Reply: 14.3

Ask: Moving on to the next compound: "Cc1ccc(C(C)C)cc1NC(=O)c1cccc([N+](=O)[O-])c1"
Reply: 18.9

---

# assay_notes: NCI Yeast Anticancer Drug Screen. Data for the mlh1 rad18 strain (AID 175)
# assay_conditions: S. cerevisiae mlh1 rad18 strain growth inhibition; at 50.0 µM; stronger effect = higher value
This is part of a sample that, as a whole, favours compounds with a hit. Of some 79,000 tested, about 15% had one in any assay.
growth inhibition vs -10%: at or above is Satisfied, below is Not satisfied.

Solved entries:
compound: COC(=O)c1nc(=S)[nH]c(C(=O)OC)c1C(=O)c1ccccc1
answer_label: Not satisfied
--
compound: COc1ccc(C(O)C(O)(c2ccccc2)c2ccc(OC)cc2)cc1 (configuration not stated)
answer_label: Not satisfied

Ask: Given CC(N)CCC(=O)O (configuration not stated) , state whether its growth inhibition is at least -10%.
Reply: Not satisfied

Ask: Next entry: "COc1cc(Cl)ccc1C"
Reply: Not satisfied

Ask: How about this compound: COc1cc2c(cc1OC)C(=O)C1(CO)COC(=O)C1C2 (configuration not stated)
Reply: Satisfied

Ask: How about "Cn1c(=O)c2[nH]c(SCCc3ccccc3)nc2n(C)c1=O" ?
Reply: Satisfied

Ask: Similarly, "C/C(C(=O)O)=C(\C)c1ccccc1" ?
Reply: Satisfied

Ask: Consider next the compound "O=C(O)C1(NO)CCCCC1" in the same way.
Reply: Satisfied

Ask: Next compound up: "Oc1cccc(C(c2ccccc2)c2ccccc2)c1"
Reply: Satisfied

Ask: # repeat for "COc1ccc(OC)c(NC(=O)Nc2ccc(I)cc2)c1"
Reply: Satisfied

Ask: Try this compound next: "CCCN=C(C)C(C)=NCCC"
Reply: Not satisfied

---

Below, each entry is listed alongside its reported growth inhibition.
# assay_notes: NCI Yeast Anticancer Drug Screen. Data for the mlh1 rad18 strain (AID 175)
# assay_conditions: S. cerevisiae mlh1 rad18 strain growth inhibition; at 50.0 µM; stronger effect = higher value
This is part of a sample that, as a whole, favours compounds with a hit. Of some 79,000 tested, about 15% had one in any assay. The source made the active and inactive calls. No stated cut-off is given here; in the data, active means growth inhibition above about 70%; inactive means the rest.

compound: CCC(c1ccc(OC)cc1)c1cc2c(cc1OCCO)OCO2 (stereo not given)
value_kind: growth inhibition
recorded_value: 96.3% (active)

compound: COC(=O)/C=C(C)/C=C/c1cc(C(C)=O)c(C)o1
value_kind: growth inhibition
recorded_value: -7.05% (inactive)

compound: CCOC(=O)C(Nc1cc([N+](=O)[O-])ccc1C(=O)N1CCCCC1)(C(=O)OCC)N1CCCCC1
value_kind: growth inhibition
recorded_value: 15% (inactive)

compound: CCN(CC)CCC(CCN(CC)CC)(COC(=O)c1ccc([N+](=O)[O-])cc1)c1ccccc1
value_kind: growth inhibition
recorded_value: 12.6% (inactive)

compound: CC(=O)Nc1ccc(F)c([N+](=O)[O-])c1
value_kind: growth inhibition
recorded_value: 5.7% (inactive)

Ask: For the compound shown here, "O=C(CCc1ccccc1CO)NCCc1ccccc1" , give the reported growth inhibition.
Reply: 3.85% (inactive)

Attribution: PubChem BioAssay (NCI)
